Target: human IL-4Rα (hIL-4Rα) monomeric protein (human) (UniProt P24394)
Assay: barcoded-antigen count on source cell (scRNA-seq)
Each entry below carries its reported REGN560.L15 ab raw.

# Binder, REGN560.L15 ab raw, counts
rows = [
    ("Table 1 Line # 50 antibody (SP_Plasma_cell) (antibody, human IgG4, V domains shown) VH: EVKLLESGGGLVQPGGSLRLSCAASGFSFSTYAMNWVRQAPGKGLEWVSAITGSGGSTYYADSVKGRFTMSRDNSKNTLYLQMNSLRAEDTAVYYCAKDRRGAFDIGGQGTMVTVSS VL: DIQMTQSPSSVSASVGDRVTITCRASQGISSWLAWYQQKPGKVPKFLIYAASNLQSGVPSRFSGSGSGTDFTLTISSLQPEDFATYYCQQANSFPFTFGPGTKVDIK", 924),
    ("Table 1 Line # 47 antibody (SP_Plasma_cell) (antibody, human IgG4, V domains shown) VH: ELQLVESGGGLVQPGRSLRLSCAASGFPFDAYAMHWVRQAPGKGLQWVSGIRWNGGNIDYVDSVKGRFTISRDNAKNSLYLQLNSLRSEDTALYYCAKDLGGSHYALDVWGQGTMVTVSS VL: DIQMTQSPSSLSASVGARVTITCRASQSINNDLNWYQQKPGKAPKFLIYAASSLQSGVPSRFSGRGSGTDFTLTIRSLQPEDFAVYYCQQTYSSPFTFGPGTKVDLK", 1520),
    ("Table 1 Line # 38 antibody (SP_B_cell) (antibody, human IgG4, V domains shown) VH: EVHLVESGGGLAKPGGSLRLSCTASGFTFSTYNLNWVRQAPGKGLEWVSYISRSSVYIYYADSLKGRFTISRDDAKNSLYLQMNSLRAEDTAVYYCVRDDYGDYVPLDYWGQGTLVTVSS VL: AIQMTQSPSSLSASVGDRITITCRASQGISNDLGWYQQKPGKAPKLLIFAASSLQSGVLSRFSGSGSGTDFTLTISSLQPEDVATYFCLQDYNFPRTFGQGTKVEIK", 6050),
]
